subject of test: human TLR7 (Homo sapiens, UniProt Q9NYK1)
Construct: expressed in transfected cells; host or cells: HEK293
Sequence (Q9NYK1 27-1049): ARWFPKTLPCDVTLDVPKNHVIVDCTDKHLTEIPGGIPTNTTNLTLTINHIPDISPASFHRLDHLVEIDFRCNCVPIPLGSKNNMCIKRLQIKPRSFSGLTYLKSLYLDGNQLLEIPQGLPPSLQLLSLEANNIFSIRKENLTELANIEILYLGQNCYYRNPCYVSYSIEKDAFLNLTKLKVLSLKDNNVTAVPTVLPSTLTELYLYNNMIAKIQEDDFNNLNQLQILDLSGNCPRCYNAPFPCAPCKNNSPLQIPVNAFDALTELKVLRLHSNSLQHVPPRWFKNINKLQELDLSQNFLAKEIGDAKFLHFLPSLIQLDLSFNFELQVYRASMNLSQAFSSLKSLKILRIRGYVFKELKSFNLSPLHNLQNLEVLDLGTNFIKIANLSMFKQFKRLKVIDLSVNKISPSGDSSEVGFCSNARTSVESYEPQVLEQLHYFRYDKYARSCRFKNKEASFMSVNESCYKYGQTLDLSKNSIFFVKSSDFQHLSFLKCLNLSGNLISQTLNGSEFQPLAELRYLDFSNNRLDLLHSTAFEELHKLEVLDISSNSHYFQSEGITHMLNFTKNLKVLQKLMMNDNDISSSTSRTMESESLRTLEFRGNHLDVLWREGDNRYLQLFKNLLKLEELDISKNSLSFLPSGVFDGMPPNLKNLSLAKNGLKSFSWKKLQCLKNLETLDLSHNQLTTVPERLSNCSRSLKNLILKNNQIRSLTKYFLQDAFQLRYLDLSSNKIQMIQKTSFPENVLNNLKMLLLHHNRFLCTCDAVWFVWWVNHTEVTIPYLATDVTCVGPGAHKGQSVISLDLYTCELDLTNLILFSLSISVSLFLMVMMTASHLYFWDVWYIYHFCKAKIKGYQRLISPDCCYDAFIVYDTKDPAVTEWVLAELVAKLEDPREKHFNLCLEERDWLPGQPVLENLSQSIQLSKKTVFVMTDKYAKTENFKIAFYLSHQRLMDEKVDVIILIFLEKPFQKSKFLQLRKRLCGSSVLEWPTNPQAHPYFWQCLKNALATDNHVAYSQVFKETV
assay name: Human TLR7 cellular reporter assay (HEK293, NFkB-luc)
Format: cell-based
experimental setup: HEK293 cells transiently transfected with TLR7 and NFkB-luc; 6 hours incubation; lowest effective concentration
Method: Assessment of human TLR7 and human TLR8 activity. The ability of compounds to activate human TLR7 and/or TLR8 was assessed in a cellular reporter assay using HEK293 cells transiently transfected with a TLR7 or TLR8 expression vector and NFkB-luc reporter construct. Briefly, HEK293 cells were grown in culture medium (DMEM supplemented with 10% FCS and 2 mM glutamine). […]
observation type: Human TLR 7 (LEC) (µM)

1 = CCCCNc1nc(N)nc2c1CCOC2
2 = CCCCNc1nc(N)nc2c1COCC2
3 = CCCCNc1nc(N)nc2c1OCCC2
4 = CCCC[C@H](CO)Nc1nc(N)nc2c1OCCC2
Query: Order the 4 compounds from highest to lowest Human TLR 7 (LEC). The reply should contain the labels ordered as requested.
Response: 4, 2, 1, 3
(4: 32.5 µM, 2: 14.8 µM, 1: 4.7 µM, 3: 0.8 µM)
